Assay: Confirmatory qHTS for inhibitors of MERS-S pseudo-typed particle cell entry
Conditions: MERS-S pseudotyped particle entry, luciferase reporter; series mostly up to 57.1 µM
Records with an inconclusive call do not appear. Active and inactive are the calls of the source. Calls come from the whole dose curve.

Molecule	Potency
COc1cc(N)c(Cl)cc1C(=O)NC1CCN(CCCOc2ccc(F)cc2)CC1OC (stereo unspecified)	15.2 µM (active)
CC(C)C[C@H](NC(=O)[C@H](CCc1ccccc1)NC(=O)CN1CCOCC1)C(=O)N[C@@H](Cc1ccccc1)C(=O)N[C@@H](CC(C)C)C(=O)[C@@]1(C)CO1	0.192 µM (active)
COc1cc2c(cc1Cc1cccc(Cl)c1F)c(=O)c(C(=O)O)cn2[C@H](CO)C(C)C	0.304 µM (active)
CCCCCCCCCCCCCC[n+]1ccc(C)cc1	2.41 µM (active)
COc1cccc2c1C(=O)c1c(O)c3c(c(O)c1C2=O)C[C@@](O)(C(C)=O)C[C@@H]3O[C@H]1C[C@H](N)[C@H](O)[C@H](C)O1	3.83 µM (active)
Cc1cn([C@H]2C[C@H](N=[N+]=[N-])[C@@H](CO)O2)c(=O)[nH]c1=O	0.242 µM (active)
Oc1c(Cl)cc(Cl)c(Cl)c1Cc1c(O)c(Cl)cc(Cl)c1Cl	0.857 µM (active)
COC(=O)C1=C(C)NC(C)=C(C(=O)OCC(C)C)C1c1ccccc1[N+](=O)[O-] (stereo unspecified)	19.2 µM (active)
O=c1[nH]c(=O)n([C@H]2C[C@H](O)[C@@H](CO)O2)cc1C(F)(F)F	6.81 µM (active)
Nc1nc(Cl)nc2c1ncn2C1CC(O)C(CO)O1 (stereo unspecified)	12.1 µM (active)
COc1ccc2cc1Oc1ccc(cc1)C[C@H]1c3c(cc4c(c3Oc3cc5c(cc3OC)CCN(C)[C@@H]5C2)OCO4)CCN1C	1.71 µM (active)
CC(C)(C)c1ccc(C(=O)CCCN2CCC(OC(c3ccccc3)c3ccccc3)CC2)cc1	3.41 µM (active)
CC[C@@H]([C@H](C)O)n1ncn(-c2ccc(N3CCN(c4ccc(OC[C@@H]5CO[C@@](Cn6cncn6)(c6ccc(F)cc6F)C5)cc4)CC3)cc2)c1=O	7.64 µM (active)
NCCNc1ccc(NCCN)c2c1C(=O)c1ccncc1C2=O	19.2 µM (active)
C/C=C(/C)C(=O)O[C@H]1C(C)=CC23C(=O)C(C=C(CO)[C@@H](O)[C@]12O)[C@H]1[C@@H](C[C@H]3C)C1(C)C (stereo partly specified)	inactive
Cc1nnc(C(=O)NC(C)(C)c2nc(C(=O)NCc3ccc(F)cc3)c(O)c(=O)n2C)o1	0.0043 µM (active)
COc1cccc2c1C(=O)c1c(O)c3c(c(O)c1C2=O)C[C@@](O)(C(=O)CO)C[C@@H]3O[C@H]1C[C@H](N)[C@H](OC2CCCCO2)[C@H](C)O1 (stereo partly specified)	inactive
CCN1CCN(Cc2ccc(Nc3ncc(F)c(-c4cc(F)c5nc(C)n(C(C)C)c5c4)n3)nc2)CC1	0.482 µM (active)
O=C1c2c(O)ccc(O)c2C(=O)c2c(NCCNCCO)ccc(NCCNCCO)c21	0.961 µM (active)
CCCCCCCCCCCC[n+]1ccc2ccccc2c1	1.36 µM (active)
C[C@@H](c1nc(-c2ccc(C#N)cc2)cs1)[C@](O)(Cn1cncn1)c1cc(F)ccc1F	5.41 µM (active)
C[C@]12CC[C@H](O)C[C@H]1CCC1C2CC[C@]2(C)[C@@H](c3ccc(=O)oc3)C[C@H]3O[C@]132 (stereo partly specified)	3.83 µM (active)
Cc1ccc(NC(=O)c2ccc(CN3CCN(C)CC3)cc2)cc1Nc1nccc(-c2cccnc2)n1	13.6 µM (active)
COc1cccc2c1C(=O)c1c(O)c3c(c(O)c1C2=O)C[C@@](O)(C(=O)CO)CC3OC1CC(N2CCOC(OC)C2)C(O)C(C)O1 (stereo partly specified)	0.215 µM (active)
COc1ccc(Cc2nccc3cc(OC)c(OC)cc23)cc1OC	4.82 µM (active)
CN(C)[C@@H](CCOc1cccc2ccccc12)c1ccccc1	12.1 µM (active)
CN1CCC(=C2c3ccccc3C=Cc3ccccc32)CC1	19.2 µM (active)
CC(C)C(=O)Oc1ccc(CO)cc1[C@H](CCN(C(C)C)C(C)C)c1ccccc1	19.2 µM (active)
COc1cc([C@@H]2c3cc4c(cc3C(O[C@@H]3O[C@@H]5CO[C@@H](c6cccs6)OC5[C@H](O)[C@H]3O)C3COC(=O)[C@@H]32)OCO4)cc(OC)c1O (stereo partly specified)	0.271 µM (active)
CCCCCCOC(=O)NC(=N)c1ccc(NCc2nc3cc(C(=O)N(CCC(=O)OCC)c4ccccn4)ccc3n2C)cc1	19.2 µM (active)
N#CC(c1ccc(Cl)cc1)c1c(Cl)cc(-n2ncc(=O)[nH]c2=O)cc1Cl (stereo unspecified)	7.64 µM (active)
CC(=O)Oc1ccccc1C(=O)Nc1ncc([N+](=O)[O-])s1	10.8 µM (active)
CN1CCCCC1CCN1c2ccccc2Sc2ccc(S(C)=O)cc21 (stereo unspecified)	17.1 µM (active)
CN(C)CCC=C1c2ccccc2C(C)(C)c2ccccc21	15.2 µM (active)
CC(C)(C)C(=O)OCOP(=O)(COCCn1cnc2c(N)ncnc21)OCOC(=O)C(C)(C)C	0.0304 µM (active)
COc1cc2nccc(Oc3ccc(NC(=O)C4(C(=O)Nc5ccc(F)cc5)CC4)cc3)c2cc1OC	12.1 µM (active)

Values were extracted from PubChem BioAssay AID1494157.
